I'd be grateful if you could share measured IC50 for these entries.
Tested on: Wnt signaling
Test: TopFlash reporter gene bioassay in SW480 cells
Assay type: cell-based
Conditions: Homo sapiens, SW480, TopFlash reporter gene assay, inhibition of Wnt signaling; read-out: RGA, IC50 (μM) TopF
One number for each entry, in µM.

Worked set:
COMPOUND_STRUCTURE_STRING: C=CCN1CC(=O)N2[C@@H](Cc3ccc(O)cc3)C(=O)N(Cc3cccc(-c4ccc(OC)cc4)c3)C[C@@H]2N1C(=O)NCc1ccccc1
READOUT_TYPE: IC50
UOM: µM
OBSERVED: 1.91

COMPOUND_STRUCTURE_STRING: C=CCN1CC(=O)N2[C@@H](Cc3ccc(O)cc3)C(=O)N(Cc3cccc(Br)n3)C[C@@H]2N1C(=O)NCc1ccccc1
READOUT_TYPE: IC50
UOM: µM
OBSERVED: 2.37

COMPOUND_STRUCTURE_STRING: C=CCN1CC(=O)N2[C@@H](Cc3ccc(O)cc3)C(=O)N(Cc3cccc4c3ncn4C(=O)CNC(=O)OC(C)(C)C)C[C@@H]2N1C(=O)NCc1ccccc1
READOUT_TYPE: IC50
UOM: µM
OBSERVED: 1.17

COMPOUND_STRUCTURE_STRING: C=CCN1CC(=O)N2[C@@H](Cc3ccc(O)cc3)C(=O)N(Cc3cccc(OC)c3OS(=O)(=O)CCCCCCCC)C[C@@H]2N1C(=O)NCc1ccccc1
READOUT_TYPE: IC50
UOM: µM
OBSERVED: 14.4

COMPOUND_STRUCTURE_STRING: C=CCN1CC(=O)N2[C@@H](Cc3ccc(O)cc3)C(=O)N(Cc3cccnc3-c3ccc(OC)cc3)C[C@@H]2N1C(=O)NCc1ccccc1
READOUT_TYPE: IC50
UOM: µM
OBSERVED: 2.42

Now for the molecule whose IC50 we want.
Given item `C=CCN1CC(=O)N2[C@@H](Cc3ccc(O)cc3)C(=O)N(Cc3cccc4c(C(C)=O)c[nH]c34)C[C@@H]2N1C(=O)NCc1ccccc1` , the value recorded as its IC50 is 0.098
